assay: small-molecule binders of probe aNOTCH2, primary screen, biochemical, small-molecule microarray, 635/667 nm fluorescence (AID 1121); conditions: higher = more signal;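 also: score merges feature fluorescence read at 667 nm with its signal to noise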
Short version: composite z-score at least 0.002 is T, less is F.

Example results:
COc1ccc(CCNC(=O)[C@@]2(Sc3ccc(C)cc3)CC(=O)N(Cc3cc(C(F)(F)F)cc(C(F)(F)F)c3)[C@@H]2c2ccc(CO)cc2)cc1: T
C=C(CCCC)C(=O)CC[C@H](OC(=O)c1cccnc1)c1ccc(CO)o1: F
COc1ccc([Si](C)(C)[C@@H]2[C@@H](CC(=O)N(CCO)Cc3ccccc3)O[C@]3(C(=O)N(Cc4ccc(N5CCC5=O)cc4)c4ccccc43)[C@H]2C)cc1: F
COCCOC(=O)N1C(=O)[C@@]2(c3cc(C#CCCO)ccc31)[C@H](C(=O)N1CCc3cc(OC)c(OC)cc3C1)[C@H]1C(=O)O[C@H](c3ccccc3)[C@H](c3ccccc3)N1[C@@H]2c1ccccc1OCCO: T
CC(C)C[C@@H]1NC(=O)[C@H]2C[C@@H](C(=O)NCCCCCCNC(=O)CS)[C@@H](c3ccc(O)cc3)N2C1=O: F

Next compound, please.
Test whether the compound CCOC(=O)C[C@H]1[C@H](OC(=O)c2ccc(-c3ccccc3)cc2)[C@@H](NC(=O)c2ccc3ccccc3c2)c2cc(OCCCO)ccc2N1C(=O)c1ccccc1 records composite z-score of 0.002 or higher.
F
